# target under test: β2-adrenoceptor (Rattus norvegicus, UniProt P10608)
# Construct: Uteri of pregnant SD rats (pregnancy day 21) were isolated; from tissue; host or cells: uterus (myometrium strips) of pregnant SD rats, day 21
# Sequence (P10608 whole entry): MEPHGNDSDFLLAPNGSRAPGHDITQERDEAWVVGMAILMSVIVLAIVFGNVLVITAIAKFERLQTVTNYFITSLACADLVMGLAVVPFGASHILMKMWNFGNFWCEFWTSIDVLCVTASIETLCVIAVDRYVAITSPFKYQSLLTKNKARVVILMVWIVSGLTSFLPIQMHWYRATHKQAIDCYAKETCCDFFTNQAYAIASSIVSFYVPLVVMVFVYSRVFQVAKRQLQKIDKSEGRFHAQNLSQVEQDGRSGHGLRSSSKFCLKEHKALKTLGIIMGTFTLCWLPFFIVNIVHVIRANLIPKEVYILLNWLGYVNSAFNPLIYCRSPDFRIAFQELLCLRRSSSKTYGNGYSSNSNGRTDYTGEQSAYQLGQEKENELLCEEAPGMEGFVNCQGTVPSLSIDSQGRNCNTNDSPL
# assay: Experiment for measuring β2-adrenoceptor stimulating effects (inhibition of spontaneous contraction of isolated pregnant rat uterus, Magnus method)
# Type: cell-based
# assay context: read-out: EC50 value (concentration required to produce 50% of the inhibition of uterine contraction); isolated uteri of pregnant SD rats (pregnancy day 21); sum of contractions during 5 minutes
quantity measured: pEC50
One number for each entry, as −log10 of the molar value.

# input Please report pEC50 for the following compound: C[C@H](Cc1ccc(OCC(=O)O)cc1)NC[C@H](O)c1cccc(Cl)c1 [(R,R)-BRL-37344, reference compound]
# output 8.05

* * *

# target under test: β1-adrenoceptor (Rattus norvegicus)
# Construct: Atria of male SD rats (250 to 400 g in body weight) were isolated; from tissue; host or cells: atria of male SD rats
# Sequence (P18090 whole entry): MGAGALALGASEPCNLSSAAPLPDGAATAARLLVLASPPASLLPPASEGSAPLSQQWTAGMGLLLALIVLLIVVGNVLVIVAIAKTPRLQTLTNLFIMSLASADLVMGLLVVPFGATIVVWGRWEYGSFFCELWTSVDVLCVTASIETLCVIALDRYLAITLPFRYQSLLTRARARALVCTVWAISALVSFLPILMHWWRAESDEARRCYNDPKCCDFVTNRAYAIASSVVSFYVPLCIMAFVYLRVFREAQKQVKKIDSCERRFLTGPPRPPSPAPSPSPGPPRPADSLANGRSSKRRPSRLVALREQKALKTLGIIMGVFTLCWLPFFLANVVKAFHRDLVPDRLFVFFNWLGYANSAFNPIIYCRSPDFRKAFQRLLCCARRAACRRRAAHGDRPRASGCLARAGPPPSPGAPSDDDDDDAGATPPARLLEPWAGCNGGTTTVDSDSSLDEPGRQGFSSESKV
# assay: Experiment for measuring β1-adrenoceptor stimulating effects (heart rate increase in isolated rat atria, Magnus method)
# Type: cell-based
# assay context: isolated atria of male SD rats; 100% = increase after 10^−8M isoproterenol
Where a name gives a salt, the structure may show the parent alone.
quantity measured: pEC50
Answers are plain numbers, as −log10 of the molar value.

# input Please tell me the measured pEC50 for Cc1cc(CCN[C@@H](C)[C@H](O)c2ccc(O)cc2)ccc1OCC(=O)O [Compound 33] ; system: β1-adrenoceptor (Rattus norvegicus).
# output 4.51

# input Please tell me the measured pEC50 for C[C@H](NCCc1ccc(OCC(=O)O)c(C#N)c1)[C@H](O)c1ccc(O)cc1 [Compound 37] ; system: β1-adrenoceptor (Rattus norvegicus).
# output 4.48

# input Please tell me the measured pEC50 for C[C@H](NCCc1ccc(OCC(=O)O)c([N+](=O)[O-])c1)[C@H](O)c1ccc(O)cc1 [Compound 38] ; system: β1-adrenoceptor (Rattus norvegicus).
# output 4.24

# input Please tell me the measured pEC50 for CCOC(=O)COc1ccc(CCN[C@@H](C)[C@H](O)c2ccc(O)cc2)cc1Cl.Cl [Compound 48, hydrochloride] ; system: β1-adrenoceptor (Rattus norvegicus).
# output 4.77

# input Please tell me the measured pEC50 for C[C@H](NCCc1ccc(OCC(=O)O)c(O)c1)[C@H](O)c1ccc(O)cc1 [Compound 46] ; system: β1-adrenoceptor (Rattus norvegicus).
# output 4.68

# input Please tell me the measured pEC50 for C[C@H](NCCc1ccc(OCC(=O)O)c(Cl)c1)[C@H](O)c1ccc(O)cc1 [Compound 25] ; system: β1-adrenoceptor (Rattus norvegicus).
# output 4.15

// each compound listed below needs its pEC50
1. C[C@H](NCCc1ccc(OCC(=O)O)c(C(=O)N(C)C)c1)[C@H](O)c1ccc(O)cc1 [Compound 43]
2. CCOC(=O)COc1cc(Cl)c(CCN[C@@H](C)[C@H](O)c2ccc(O)cc2)cc1Cl [Compound 49, hydrochloride]
3. CCOC(=O)COc1ccc(CCN[C@@H](C)[C@H](O)c2ccc(O)cc2)cc1NC=O [Compound 40]
4. Cc1cc(OCC(=O)O)c(C)cc1CCN[C@@H](C)[C@H](O)c1ccc(O)cc1 [Compound 35]
5. C[C@H](NCCc1cc(Cl)c(OCC(=O)O)cc1Cl)[C@H](O)c1ccc(O)cc1 [Compound 27]
6. C[C@H](NCCc1ccc(OCC(=O)O)c(F)c1)[C@H](O)c1ccc(O)cc1 [Compound 28]

# output
[4.24, 5.17, 5.46, 4.42, 4.31, 4.52]

* * *

For each record, write down the corresponding EC50.
# target under test: β2-adrenoceptor (Rattus norvegicus, UniProt P10608)
# Construct: Uteri of pregnant SD rats (pregnancy day 21) were isolated; from tissue; host or cells: uterus (myometrium strips) of pregnant SD rats, day 21
# assay: Experiment for measuring β2-adrenoceptor stimulating effects (inhibition of spontaneous contraction of isolated pregnant rat uterus, Magnus method)
# Type: cell-based
# assay context: isolated uteri of pregnant SD rats (pregnancy day 21); sum of contractions during 5 minutes
Numbers only, in µM.

As a guide, the following entries are already answered.
# input Please report EC50 for the following compound: C[C@H](NCCc1ccc(OCC(=O)O)c([N+](=O)[O-])c1)[C@H](O)c1ccc(O)cc1 [Compound 38]
# output 2.6

# input Please report EC50 for the following compound: Cc1cc(OCC(=O)O)c(C)cc1CCN[C@@H](C)[C@H](O)c1ccc(O)cc1 [Compound 35]
# output 1.8

# input Please report EC50 for the following compound: C[C@H](NCCc1cc(Cl)c(OCC(=O)O)c(Cl)c1)[C@H](O)c1ccc(O)cc1 [Compound 26]
# output 1.4

# input Please report EC50 for the following compound: C[C@H](NCCc1ccc(OCC(=O)O)c(F)c1)[C@H](O)c1ccc(O)cc1 [Compound 28]
# output 1.8

# input Please report EC50 for the following compound: COc1cc(CCN[C@@H](C)[C@H](O)c2ccc(O)cc2)ccc1OCC(=O)O [Compound 29]
# output 3.9

# input Please report EC50 for the following compound: Cc1cc(CCN[C@@H](C)[C@H](O)c2ccc(O)cc2)ccc1OCC(=O)O [Compound 33]
# output 13

// each compound listed below needs its EC50
1. CCOC(=O)COc1ccc(CCN[C@@H](C)[C@H](O)c2ccc(O)cc2)cc1NC=O [Compound 40]
2. C[C@H](NCCc1ccc(OCC(=O)O)c(Br)c1)[C@H](O)c1ccc(O)cc1 [Compound 24]
3. C[C@H](NCCc1ccc(OCC(=O)O)c(C#N)c1)[C@H](O)c1ccc(O)cc1 [Compound 37]
4. C[C@H](NCCc1ccc(OCC(=O)O)c(OCc2ccccc2)c1)[C@H](O)c1ccc(O)cc1 [Compound 31]
5. CCOc1cc(CCN[C@@H](C)[C@H](O)c2ccc(O)cc2)ccc1OCC(=O)O [Compound 30]
6. C[C@H](NCCc1ccc(OCC(=O)O)c(N(C)C)c1)[C@H](O)c1ccc(O)cc1 [Compound 47]
7. C[C@H](NCCc1ccc(OCC(=O)O)c(C(=O)N(C)C)c1)[C@H](O)c1ccc(O)cc1 [Compound 43]

# output
1
10
76
1.9
25
17
53

* * *

# target under test: β1-adrenoceptor (Rattus norvegicus)
# Construct: Atria of male SD rats (250 to 400 g in body weight) were isolated; from tissue; host or cells: atria of male SD rats
# assay: Experiment for measuring β1-adrenoceptor stimulating effects (heart rate increase in isolated rat atria, Magnus method)
# Format: cell-based
# assay context: read-out: EC50 value (concentration required to produce 50% increase of heart rate per minute); isolated atria of male SD rats; 100% = increase after 10^−8M isoproterenol
quantity measured: pEC50
One number for each entry, as −log10 of the molar value.

# input Please report pEC50 for the following molecule: C[C@H](Cc1ccc(OCC(=O)O)cc1)NC[C@H](O)c1cccc(Cl)c1 [(R,R)-BRL-37344, reference compound]
# output 6.57

* * *

# target under test: β3-adrenoceptor (Mustela putorius furo)
# Sequence (M3YEU4 1-435): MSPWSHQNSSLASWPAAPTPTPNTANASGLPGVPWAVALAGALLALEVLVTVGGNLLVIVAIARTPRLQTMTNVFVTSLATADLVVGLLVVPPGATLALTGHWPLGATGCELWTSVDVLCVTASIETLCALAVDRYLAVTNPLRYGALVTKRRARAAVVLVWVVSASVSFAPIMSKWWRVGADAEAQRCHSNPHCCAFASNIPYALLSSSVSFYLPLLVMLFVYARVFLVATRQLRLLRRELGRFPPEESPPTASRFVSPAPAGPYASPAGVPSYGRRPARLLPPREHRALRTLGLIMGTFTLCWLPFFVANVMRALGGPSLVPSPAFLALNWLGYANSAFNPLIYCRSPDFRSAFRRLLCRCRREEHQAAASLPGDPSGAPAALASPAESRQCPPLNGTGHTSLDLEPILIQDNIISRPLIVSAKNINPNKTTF
# assay: Experiment for measuring β3-adrenoceptor stimulating effects (relaxation of isolated ferret urinary bladder smooth muscle, Magnus method)
# assay context: read-out: EC50 value (concentration required to produce 50% of the relaxation of urinary bladder smooth muscle); isolated male ferret urinary bladder strips; 0% = maximal relaxation by 10^−5M forskolin
quantity measured: EC50 (nM)
One number for each entry, in nM.

# input Please tell me the measured EC50 for C[C@H](Cc1ccc(OCC(=O)O)cc1)NC[C@H](O)c1cccc(Cl)c1 [(R,R)-BRL-37344, reference compound] ; system: β3-adrenoceptor (Mustela putorius furo).
# output 1.6

* * *

# target under test: β2-adrenoceptor (Rattus norvegicus, UniProt P10608)
# Construct: Uteri of pregnant SD rats (pregnancy day 21) were isolated; from tissue; host or cells: uterus (myometrium strips) of pregnant SD rats, day 21
# assay: Experiment for measuring β2-adrenoceptor stimulating effects (inhibition of spontaneous contraction of isolated pregnant rat uterus, Magnus method)
# Assay type: cell-based
# assay context: isolated uteri of pregnant SD rats (pregnancy day 21); sum of contractions during 5 minutes
Counter-ions that a name gives are not always drawn.
quantity measured: pEC50
Give bare numbers, as −log10 of the molar value.

As a guide, the following entries are already answered.
# input Please report pEC50 for the following compound: CCOC(=O)COc1cc(Cl)c(CCN[C@@H](C)[C@H](O)c2ccc(O)cc2)cc1Cl [Compound 49, hydrochloride]
# output 7.21

# input Please report pEC50 for the following compound: C[C@H](NCCc1ccc(OCC(=O)O)c(O)c1)[C@H](O)c1ccc(O)cc1
# output 6.68

# input Please report pEC50 for the following compound: C[C@H](NCCc1cc(Cl)c(OCC(=O)O)cc1Cl)[C@H](O)c1ccc(O)cc1
# output 6.31

Kindly review the next compound as well.
# input Please report pEC50 for the following compound: C[C@H](NCCc1ccc(OCC(=O)O)c(C(F)(F)F)c1)[C@H](O)c1ccc(O)cc1 [Compound 36, hydrochloride]
# output 4.70
